experiment: amyloid nucleation score (Sup35N fusion, yeast selection) (log enrichment); library NNK2; higher = more nucleation; inactive = no reads after selection;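 further: zero at mode of non-aggregating sequences after 7 days selection at 30°C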
assay_metric: amyloid nucleation score

Example cases with answers are listed next.
>  <residue_sequence>
FYLGVALVHNKAWLFLWKDD

>  <amyloid nucleation score>
inactive

$$$$
>  <residue_sequence>
KTFTWHIVRLYYKYPPMPKV

>  <amyloid nucleation score>
inactive

$$$$
>  <residue_sequence>
ITCDRYITDVIDNEA

>  <amyloid nucleation score>
inactive

$$$$
>  <residue_sequence>
NFHLEIIFPRQLRLNRSPWV

>  <amyloid nucleation score>
3.96

$$$$
>  <residue_sequence>
MHRSCGEIACTKKVAIEMKD

>  <amyloid nucleation score>
1.34

$$$$

In: For the sequence shown here, `LCLTLVRPPRSCMLATL` , give the reported amyloid nucleation score.
Out: inactive

In: Field request: amyloid nucleation score | item: `TRMVCSFRCQESVPEP`
Out: 0.775

###

assay: amyloid nucleation score (Sup35N fusion, yeast selection) (log enrichment); library NNK2; higher = more nucleation; inactive = no reads after selection
assay_metric: amyloid nucleation score
Form rule: numeric answer, no unit written next to it.

In: Suppose we examine the sequence `PVKPDSVGVRSIMGIVFGYR` ; what amyloid nucleation score value has been reported?
Out: 2.94

In: Any idea what amyloid nucleation score was measured for `ALMLWKCKARTCISPQRRGV` ?
Out: 0.448

In: // returns reported amyloid nucleation score for input `HFNLCTQNMSNGYRDCRHT`
Out: 4.68

In: What value of amyloid nucleation score has been reported for the following sequence? `GKDGTFRVVPRQEDRSAHWL`
Out: -0.464

In: For the sequence shown here, `PDGSASIGGYYGQFLL` , give the reported amyloid nucleation score.
Out: -0.746

In: # query: amyloid nucleation score of entry `KPIIGGVSTERSLVIAGVHL`
Out: 0.011

In: I'd like to know its amyloid nucleation score. The sequence in question is `ESISTVITLRGLMLITTGYN`
Out: 4.12

In: What value of amyloid nucleation score has been recorded for this entry: `SSYDLITIKEFIKSGRVK`
Out: -0.119

In: What does the data say about its amyloid nucleation score? Entry: `VCYRSKASILLYGTPGGVRV`
Out: -0.184

In: Given `NDRNYLSGSGESELLPDCND` , state its recorded amyloid nucleation score.
Out: -0.434

In: Data request, read-out amyloid nucleation score, for `LCFSVNLARNLWLDNWVGGR`
Out: 6.12

In: Name the recorded amyloid nucleation score for `PRVVYNFLNWGIGFYFVVDD` .
Out: 7.16

###

assay: amyloid nucleation score (Sup35N fusion, yeast selection) (log enrichment); library NNK2; higher = more nucleation; inactive = no reads after selection
assay_metric: amyloid nucleation score
Answer with a number only.

In: Please give the measured amyloid nucleation score for this substance: `SMFFYSFNWLQFYFRVDVHW`
Out: -0.311

In: Would you kindly share the measured amyloid nucleation score for `DFGVWFFFYTHQLSA` ?
Out: -0.113

In: Endpoint output: amyloid nucleation score of `NFSDFRCLL` . Value?
Out: -0.031

In: What measured amyloid nucleation score goes with `KVMGYGYA` ?
Out: -1.02

In: // lookup amyloid nucleation score for `LFMACLIGIFFHVETTRCRW`
Out: 2.5

In: Query: amyloid nucleation score; subject: `ITILCLNVSMVYEVGQ`
Out: 7.78

In: Requested field: amyloid nucleation score. Item: `ARSNFLFRHNILFFVYFITS`
Out: -1.48

In: // lookup amyloid nucleation score for `DQKTMTTVL`
Out: 0.368

In: // lookup amyloid nucleation score for `KYGDNSMYLMLLMVCYKGAC`
Out: -0.622

In: Dear colleague, I am looking for the recorded amyloid nucleation score of the following substance: `NRNHMCRSCYMGWFRGRAKA`
Out: -1.04

In: Endpoint output: amyloid nucleation score of `STWVWMSFCVNLLDPHACGS` . Value?
Out: 7.54

In: Record request: amyloid nucleation score value, item `IFSIHVVAQTINE`
Out: 4.64

In: Item `CMGDNVIC` has what recorded amyloid nucleation score?
Out: -0.954

In: What value of amyloid nucleation score has been recorded for this entry: `NGGAVFCVHACYGFRGRYER`
Out: 5.05

In: Consider the substance shown here: `AITSLYSRSLFLVLTCTVCF` What is its recorded amyloid nucleation score?
Out: 5.68

In: Consider the substance `LGPMTLATTLFNCKDRHVSP` and give its measured amyloid nucleation score.
Out: 0.438

In: I have this substance here, `WVDMAL` , and I need its recorded amyloid nucleation score.
Out: 0.168

In: Given the substance `IFRVLTGVIK` , what is its reported amyloid nucleation score?
Out: -0.277

In: Bench note: what amyloid nucleation score did `FGKCYYLFVSYHYMLGLACT` show?
Out: -0.549

In: Find the recorded amyloid nucleation score belonging to `IIRMNLAGDGVESWGWDRLS` and report it.
Out: 1.12

In: Returns the measured amyloid nucleation score for the input substance. Input: `AAVFMLQRLDFINRMASASF`
Out: 3.72

In: Can you share its amyloid nucleation score? I mean this substance: `FNGVLDWEWHGVAFAWAGLV`
Out: 0.399

In: Query: amyloid nucleation score; subject: `TYTKFISILRSALSLMYLAS`
Out: 0.972

In: For the substance shown here, `RVMRLGTLEDNWGDHGLSSR` , give the reported amyloid nucleation score.
Out: -0.583

In: For `DLTCSC` , what is its reported amyloid nucleation score?
Out: 0.804

In: Please give the measured amyloid nucleation score for this substance: `VIMMSNNSERYYVEQIFVSG`
Out: 0.09

In: State the recorded amyloid nucleation score for this entry: `SISRFSFIRNTVGRD`
Out: 0.637

In: Given the substance `KWTFLRLILTMV` , what is its reported amyloid nucleation score?
Out: -0.511

In: Bench note: what amyloid nucleation score did `GTSIFHRKDGASTDMACQPF` show?
Out: 0.14

###

assay: amyloid nucleation score (Sup35N fusion, yeast selection) (log enrichment); library NNK2; higher = more nucleation; inactive = no reads after selection
Lab note: anything with amyloid nucleation score at or over 0.7 counts as Met; the rest go in Not met.

In: Check the entry `ATTFKPAHLSRYMWLATYPV` : does amyloid nucleation score equal or exceed 0.7?
Out: Met

In: Answer whether amyloid nucleation score of `YFHVVFL` is greater than or equal to 0.7.
Out: Met

In: For this substance, is measured amyloid nucleation score 0.7 or higher? `CSFRAFLWCILGGGENFNSS`
Out: Met

In: Determine whether this substance has amyloid nucleation score no lower than 0.7: `DEPLWKLKFKFEWFIRTLVI`
Out: Not met

In: Test whether the substance `YQTWDSYVRSTCVYITCPWY` records amyloid nucleation score of 0.7 or higher.
Out: Met

In: hey, is amyloid nucleation score for this one >= 0.7? `TCTNLSCTGWKNGVCVCM`
Out: Met

In: Exam item: decide whether the reported amyloid nucleation score for `IKDLSRGCFSFYW` is at least 0.7.
Out: Met

In: Quick check: does `HMSRTPQAVRTSHPRVKNRI` have amyloid nucleation score greater than or equal to 0.7?
Out: Not met

In: Would you say `RLCWLEGVIVYRIFGGKLGV` shows amyloid nucleation score at minimum 0.7?
Out: Not met

In: Form field: amyloid nucleation score at least 0.7? Entry: `MTSALGWQIYVYLSGAEYET`
Out: Not met

In: Has `YDCLCFFPWCRLFNSRKSMA` a recorded amyloid nucleation score greater than or equal to 0.7?
Out: Not met

In: For this substance, is measured amyloid nucleation score 0.7 or higher? `FSAYLLLLYKN`
Out: Not met

In: I'd appreciate it if you could say whether `DGFVGALDGVISSCWNTLRG` has amyloid nucleation score at least equal to 0.7.
Out: Not met

In: Check this substance for amyloid nucleation score at or above 0.7: `DWRLARLSSVRFLNGIDCDF`
Out: Not met

In: I'd appreciate it if you could say whether `EIHYMCELIMQWVYSGLTSR` has amyloid nucleation score at least equal to 0.7.
Out: Not met

In: amyloid nucleation score >= 0.7 for `SNSNTSEWKTG` ?
Out: Not met

In: Check the entry `QRRQVDSVM` : does amyloid nucleation score equal or exceed 0.7?
Out: Met

In: In plain terms: is recorded amyloid nucleation score at least 0.7 for `WGQNNAEAFNYALMWVFRVW` ?
Out: Met

In: Record `STNIRSLMLLFCNNIEQASV` ; criterion: amyloid nucleation score no lower than 0.7. Met?
Out: Met

In: Does amyloid nucleation score meet or surpass 0.7 for `NLQSTMMLYYCFRVMMLLAW` ?
Out: Not met

In: Assess whether reported amyloid nucleation score for `IVQKFCVASCGLEHYVF` sits at 0.7 or higher.
Out: Met

In: Does the reported amyloid nucleation score for `LDPTVPGVIANVPNRRLARS` fall at or above the 0.7 mark?
Out: Met

In: Reported amyloid nucleation score reaches at least 0.7 for `FASRLNWVEIHTMYGGLS` ?
Out: Not met

In: Dear colleague, could you confirm whether `QKTRLSPVYHVGNSGLSPSV` has amyloid nucleation score at or above 0.7?
Out: Not met

In: Dear colleague, could you confirm whether `AQISVSYGIWDSCTC` has amyloid nucleation score at or above 0.7?
Out: Met

Source of measurements: the supplement of paper PMC12042874
